Source: PubChem BioAssay (NCI)

Measured growth inhibition, listed per entry for reference.
Test: NCI Yeast Anticancer Drug Screen. Data for the mlh1 rad18 strain (AID 175)
Conditions: S. cerevisiae mlh1 rad18 strain growth inhibition; at 50.0 µM; active compounds read high
This is part of a sample that, as a whole, favours compounds with a hit. Of some 79,000 tested, about 15% had one in any assay.
// units = %; emit number, no label

Please review the following examples before continuing.
Need growth inhibition of CC1(C)CC(O)CC(O)C1 (stereo unspecified) , thanks. -6.9

Now give it for C=C(C)C1CC(=O)C2(C)C(C1)OC(=O)C2C(=O)OCC (stereo unspecified) too. -6.65

Now give it for NC(C(=O)O)c1ccc(F)cc1 (stereo unspecified) too. 37.5

# repeat for `Cc1ccc(S(=O)(=O)OCCNc2ccc([N+](=O)[O-])cc2[N+](=O)[O-])cc1` 7.85

Input `Cc1ccc(C(=O)NC(C)C)cc1N=NN(C)C` -32.2

For the next question, use this compound.
Item `CSc1ccc(NC(=O)NNP(=S)(Oc2ccc(C(C)(C)C)cc2)Oc2ccc(C(C)(C)C)cc2)cc1` has what recorded growth inhibition? -6.2

###

Experiment: NCI Yeast Anticancer Drug Screen. Data for the mec2-1 strain (AID 157)
Details: S. cerevisiae mec2-1 strain, at 50.0 µM, active compounds read high
The panel holds about 79,000 compounds, 15% with a hit somewhere; the sample as a whole holds those more often.
Each entry below carries its recorded growth inhibition.
Give the value, in units of %, as a plain number.

Tell me the measured growth inhibition of `CNS(=O)(=O)c1ccccc1C(=N)c1ccccc1` , please. -8.25

Lookup `Nc1[nH]c(=O)nc2c1cnn2Cc1ccccc1` -10.1

Next molecule: `Cc1ccc(S(=O)(=O)Oc2ccc(-c3ccc([N+](=O)[O-])cc3)cc2)cc1` 19.2

Ok, now CC(C)(C)C1CCC(C(=O)c2ccccc2)CC1 (centres undefined) -4.05

Next molecule: `Cn1cnc2cc(N3CCOCC3)c([N+](=O)[O-])cc2c1=O` 12

Consider next the molecule CC1(C)OC2CC3COC(=O)C3CC2O1 (centres undefined) in the same way. -4.85

More entries:
What does the record list as growth inhibition for `Clc1cc(Cl)cc(Nc2nc3ccccc3nc2-c2cccs2)c1` ? -14

Another molecule to check: C=C1CC(C)(Cn2c(N)nc3nc[nH]c3c2=O)OC1=O (centres undefined) 5.95

Similarly, `O=c1oc2c(CN3CCOCC3)c(O)ccc2c2c1CCCC2` ? 21.5

Cool, now `O=c1[nH]c2cc(Cl)ccc2nc1/C=C(\O)c1ccc2ccccc2c1` -5.2

###

Listed here are compounds together with their documented growth inhibition.
Test: NCI Yeast Anticancer Drug Screen. Data for the bub3 strain (AID 167)
Conditions: S. cerevisiae bub3 mutant strain, at 50.0 µM, active compounds read high
The panel holds about 79,000 compounds, 15% with a hit somewhere; the sample as a whole holds those more often.
I only need the number, in %, no unit after it.

Given `CCOC(=O)c1nnsc1NN` , state its recorded growth inhibition. -22.4

And COc1ccc(CCC(=O)O)c(C(CC(=O)O)C(=O)O)c1OS(=O)(=O)c1ccc(C)cc1 (stereo unspecified) ? -33.3

Repeat with `Cc1cccc(C)c1C` -0.65

How about `Cc1c([N+](=O)[O-])ccc2c(NCCCN(C)C)ccnc12` ? -14.3

Proceed to CC1CCC(Oc2nc3c(c(=O)n(C)c(=O)n3C)n2C)CC1 (stereo unspecified) -8.7

Lookup COc1cccc2c1CCC1=CC(=O)CCC12C (stereo unspecified) 16.9

Entry `COc1ccc2c(Cc3ccccc3O)cncc2c1O` please -5.9

And the next one, `C1COCCN1.C1COCCN1.N.N.[Cl-].[Pt+2]` ? -2.45

Could you do the same for `Cc1nn(C(=O)CC(=O)Nc2ccccc2Cl)c(C)c1N=Nc1ccccc1Cl` , please? -8.55

Repeat for the following compound: `O=C(Nc1cccc2c1C(=O)c1c(NC(=O)c3ccccc3)ccc(Nc3cccc4c3C(=O)c3ccccc3C4=O)c1C2=O)c1ccccc1` 9.05

***
# query: growth inhibition of entry `Cc1ccc(Cc2cc(=O)[nH]c(=S)[nH]2)cc1` -11.6
